Molecular target: PDGFRalpha(V561D) (Homo sapiens, UniProt P16234, V561D)
Construct: recombinant human PDGFRalpha, amino acids 550end containing the V561 D mutation; 6His (N)
Sequence (P16234 550-1089 V561D): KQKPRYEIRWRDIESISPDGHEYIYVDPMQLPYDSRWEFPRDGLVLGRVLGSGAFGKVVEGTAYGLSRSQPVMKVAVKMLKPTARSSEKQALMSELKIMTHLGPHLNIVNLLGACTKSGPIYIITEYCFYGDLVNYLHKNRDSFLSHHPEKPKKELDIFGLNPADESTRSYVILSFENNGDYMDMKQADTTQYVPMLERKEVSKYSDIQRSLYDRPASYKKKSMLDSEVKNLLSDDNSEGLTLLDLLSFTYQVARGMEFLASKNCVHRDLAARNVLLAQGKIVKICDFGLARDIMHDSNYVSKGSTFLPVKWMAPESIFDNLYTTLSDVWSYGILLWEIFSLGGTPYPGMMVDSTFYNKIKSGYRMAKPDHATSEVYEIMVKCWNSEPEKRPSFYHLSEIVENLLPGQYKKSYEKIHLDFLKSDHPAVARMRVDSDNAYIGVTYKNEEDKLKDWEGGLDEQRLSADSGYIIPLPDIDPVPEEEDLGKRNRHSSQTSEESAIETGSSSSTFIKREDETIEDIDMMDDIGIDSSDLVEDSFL
Assay: PDGFRalpha(V561D) assay
Details: recombinant human PDGFRalpha aa 550-end, 200 μM ATP, 1.4E-06 means 1.4×10^−6, read-out: Inhibition (IC50) of PDGFRα (V561D)
Where a name gives a salt, the structure may show the parent alone.
RESULT_TYPE: log10 of IC50 (log10 of the value in nM)

| COMPOUND | log10 of IC50 |
| --- | --- |
| O=C1COCCN1c1ccc(-n2cc(-c3cc4ccccc4[nH]c3=O)nn2)cn1 [A34] | 2.04 |
| O=C(c1ccc(-n2cc(-c3cc4cccc(F)c4[nH]c3=O)nn2)cc1)N1CCNCC1 [A120] | 2.36 |
| CN1CCC(C(=O)c2ccc(-n3cc(-c4cc5cc(F)ccc5[nH]c4=O)nn3)cc2)CC1 [A161] | 1.18 |
| CN(C)[C@H]1CCCN(C(=O)c2ccc(-n3cc(-c4cc5cc(F)c(F)cc5[nH]c4=O)nn3)cc2)C1 [A329] | 1.96 |
| CO[C@H]1CN(C(=O)c2ccc(-n3cc(-c4cc5cc(Cl)ccc5[nH]c4=O)nn3)cc2)C[C@@H]1OC [A272] | -0.05 |
| O=C(c1ccc(-n2cc(-c3cc4cc(F)ccc4[nH]c3=O)nn2)cc1)N1CCC(CO)C1 (centres unmarked) [A206] | 1.68 |
| O=C(c1ccc(-n2cc(-c3cc4c(F)c(F)ccc4[nH]c3=O)nn2)cc1)N1CCNCC1 [A127] | 1.90 |
| COCCO[C@@H]1CCN(C(=O)c2ccc(-n3cc(-c4cc5cc(F)ccc5[nH]c4=O)cn3)cc2)C1 [A261] | 1.57 |
| O=c1[nH]c2ccccc2cc1-c1cn(-c2ccc3nc[nH]c3c2)nn1 [A28] | 1.46 |
| O=C(c1ccc(-n2cc(-c3cc4cc(F)c(F)cc4[nH]c3=O)nn2)cc1)N1C[C@H]2CNC[C@H]2C1 [A307] | 2.38 |
| O=C(c1ccc(-n2cc(-c3cc4cc(Cl)ccc4[nH]c3=O)nn2)cc1)N1CCCCC1CO (centres unmarked) [A255] | 0.41 |
| N[C@@H]1CCCN(C(=O)c2ccc(-n3cc(-c4cc5cc(F)c(F)cc5[nH]c4=O)nn3)cc2)C1 [A309, hydrochloride] | 2.11 |
| CN(C)C[C@H]1CCCN1C(=O)c1ccc(-n2cc(-c3cc4cc(Cl)ccc4[nH]c3=O)nn2)cc1 [A322] | 1.81 |
| COCCN(C)C(=O)c1ccc(-n2cc(-c3cc4cc(F)ccc4[nH]c3=O)nn2)cc1 [A211] | 1.93 |

====

Molecular target: PDGFRalpha(V561D) (Homo sapiens, UniProt P16234, V561D)
Construct: recombinant human PDGFRalpha, amino acids 550end containing the V561 D mutation; 6His (N)
Test: PDGFRalpha(V561D) assay
Details: recombinant human PDGFRalpha aa 550-end, 200 μM ATP, 1.4E-06 means 1.4×10^−6, read-out: Inhibition (IC50) of PDGFRα (V561D)
Description: PDGFRalpha(V561D) (N-terminal 6His-tagged, recombinant human PDGFRalpha, amino acids 550end containing the V561 D mutation) is incubated with 8 mM MOPS pH 7.0, 0.2 mM EDTA, 250 μM GGMEDIYEFMGGKKK, 10 mM MgAcetate and [gamma-33P-ATP] (specific activity approx. 500 cpm/pmol, concentration 200 μM). The reaction is initiated by the addition of the MgATP mix. After incubation for 40 minutes at room temperature, the reaction is stopped by the addition of 3% phosphoric acid solution. […]
// returns no unless IC50 is strictly below 20 nM, in which case yes

| CHEM_SMILES | CLASSIFICATION |
| --- | --- |
| CN(C)C(=O)c1ccc(-n2cc(-c3cc4ccncc4[nH]c3=O)nn2)cc1 | no |
| CN(C(=O)[C@@H]1CCCO1)c1ccc(-n2cc(-c3cc4cc(F)ccc4[nH]c3=O)nn2)cc1 | yes |
| O=C(c1ccc(-n2cc(-c3cc4ccc(C(F)(F)F)cc4[nH]c3=O)nn2)cc1)N1CCNCC1 | no |
| CN1CCC(CCOc2ccc(-n3cc(-c4cc5cc(F)c(F)cc5[nH]c4=O)nn3)cc2)CC1 | no |
| CN1CCN(C(=O)c2ccc(-n3cc(-c4cc5ccc(Cl)cc5[nH]c4=O)nn3)cc2)CC1=O | yes |
| O=C(NCCN1CCOCC1)c1ccc(-n2cc(-c3cc4ccccc4[nH]c3=O)nn2)cc1 | no |
| COCCN1CCN(C(=O)c2ccc(-n3cc(-c4cc5cc(F)cnc5[nH]c4=O)nn3)cc2)CC1 | yes |
| N#Cc1ccc2cc(-c3cn(-c4ccc(C(=O)N5CCOCC5)cc4)nn3)c(=O)[nH]c2c1 | no |

====

Target: c-Kit(V654A) (Homo sapiens, UniProt P10721, V654A)
Construct: amino acids 544-end containing the V654A mutation; GST (N)
Sequence (P10721 544-976 V654A): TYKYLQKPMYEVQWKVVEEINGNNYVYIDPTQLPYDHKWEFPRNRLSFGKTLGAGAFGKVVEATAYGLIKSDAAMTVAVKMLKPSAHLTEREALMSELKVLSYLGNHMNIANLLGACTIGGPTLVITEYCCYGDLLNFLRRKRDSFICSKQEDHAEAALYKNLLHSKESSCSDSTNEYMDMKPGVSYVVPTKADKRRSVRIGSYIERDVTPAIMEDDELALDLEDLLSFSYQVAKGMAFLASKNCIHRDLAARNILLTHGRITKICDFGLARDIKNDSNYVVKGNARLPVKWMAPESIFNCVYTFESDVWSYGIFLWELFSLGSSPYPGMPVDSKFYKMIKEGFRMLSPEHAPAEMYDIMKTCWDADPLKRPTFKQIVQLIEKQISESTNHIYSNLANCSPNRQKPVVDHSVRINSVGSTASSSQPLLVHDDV
Assay: c-Kit(V654A) assay
Settings: recombinant human c-Kit aa 544-end, 200 μM ATP, 1.4E-06 means 1.4×10^−6, read-out: Inhibition (IC50) of c-KIT (V654A)
// returns f unless IC50 is strictly below 0.02 µM, in which case t

| CHEM_SMILES | TGT | CLASSIFICATION |
| --- | --- | --- |
| NC1CCN(C(=O)c2ccc(-n3cc(-c4cc5cc(F)c(F)cc5[nH]c4=O)nn3)cc2)CC1 | c-Kit(V654A) (Homo sapiens, UniProt P10721, V654A) | t |
| COC[C@@H]1CCCN1C(=O)c1ccc(-n2cc(-c3cc4cc(F)ccc4[nH]c3=O)nn2)cc1 | c-Kit(V654A) (Homo sapiens, UniProt P10721, V654A) | f |
| CN1CCN(C(=O)c2ccc(-n3cc(-c4cc5cc(F)ccc5[nH]c4=O)nn3)cc2)CC1 | c-Kit(V654A) (Homo sapiens, UniProt P10721, V654A) | t |
| COC[C@H]1CC[C@H](COC)N1C(=O)c1ccc(-n2cc(-c3cc4cc(F)c(F)cc4[nH]c3=O)nn2)cc1 | c-Kit(V654A) (Homo sapiens, UniProt P10721, V654A) | f |
| CO[C@@H]1CCN(C(=O)c2ccc(-n3cc(-c4cc5cc(F)c(F)cc5[nH]c4=O)nn3)cc2)C1 | c-Kit(V654A) (Homo sapiens, UniProt P10721, V654A) | t |
